tested on: hPSC-NSCs; experiment: RT-PCR expression of dopamine neuron genes in hPSC-NSCs treated with small molecule hits; assay type: cell-based, human; settings: Homo sapiens, Neuron, 336 h; hPSC-NSCs primed 7 days with Purmorphamine and FGF8, small molecule 2.5 μM for two weeks; read-out: DDC (AADC) expression by RT-PCR
Counter-ions that a name gives are not always drawn.
Exercise: state measured fold induction at 2.5 µM for each of the compounds provided.
Answers are plain numbers.

CCCC[C@@H](C=O)NC(=O)[C@H](CC(C)C)NC(=O)OCc1ccccc1 [Calpeptin] ... 295
S=C(NC1CCCCC1)N1CCC(c2cnc[nH]2)CC1 [Thioperamide] ... 95.6
O=C(O)/C=C/CO [trans-4-Hydroxycrotonic acid] ... 69.7
CC1(C)NC(=O)N(c2ccc([N+](=O)[O-])c(C(F)(F)F)c2)C1=O [Nilutamide] ... 172
CN(C)CCCSC(=N)N [Dimaprit dihydrochloride] ... 31.9
O=C1Cc2c([nH]c3ccc(Br)cc23)-c2ccccc2N1 [Kenpaullone] ... 11.1

Request: Using the record for CC1=C(/C=C/C(C)=C/C=C/C(C)=C/C(=O)O)C(C)(C)CCC1 [Retinoic acid] , report its fold induction at 2.5 µM.
Response: 110
